What Dose of calcium chloride causing death in animals under experiment was measured for each of the following?
System: arrhythmia induced by an intravenous administration of calcium chloride
test-details: Antiarrhythmic activity on a model of arrhythmia induced by intravenous calcium chloride (antagonism to calcium) in mice
Format: in vivo
conditions-used: white mice; intraperitoneal dose 15 mg/kg, 20-40 minutes before

CNC(=S)N(CCC(N)=O)N(C)C : 115 mg/kg

Batch: Dose of calcium chloride causing death in animals under experiment for all items listed.
1. COC(=O)CCN(C(N)=O)N(C)C
2. COC(=O)CCN(C(=S)Nc1ccccc1)N(C)C
3. CNC(=O)N(C(CC(=O)OC)C(=O)OC)N(C)C (stereo not drawn)
4. COC(=O)C(C)CN(C(N)=O)N(C)C (stereo not drawn)
5. CNC(=O)N(CCC(N)=O)N(C)C
6. CCCCCC(=O)N(CCC(N)=O)N(C)C
7. COC(=O)CCN(C(=O)OC)N(C)C
8. CCOC(=O)CCN(C(=O)c1ccccc1F)N(C)C

1: 138,3 mg/kg; 2: 138,0 mg/kg; 3: 135,0 mg/kg; 4: 136,3 mg/kg; 5: 108,5 mg/kg; 6: 136,8 mg/kg; 7: 118,5 mg/kg; 8: 125,0 mg/kg

Batch request: Dose of calcium chloride causing death in animals under experiment per item, same order as input.
1. CN(C)N(CCC(N)=O)C(=O)Nc1ccccc1
2. CCC(=O)N(CCC#N)N(C)C
3. COC(=O)CC(C(=O)OC)N(C(=O)NCCCCCCNC(=O)N(C(CC(=O)OC)C(=O)OC)N(C)C)N(C)C (stereo not drawn)

1. 125,0 mg/kg
2. 118,5 mg/kg
3. 150,0 mg/kg

Origin of measurements: patent US4633014A
